- experiment-summary: Vitreous pharmacokinetics after oral or subconjunctival administration
- Format: in vivo, mouse
- condition-summary: local (subconjunctival), co-solvent solution 0.88 mM, 8.8 nmol per eye; mice
measured-parameter: Cmax (nM)

compound="COc1cc(Nc2ncc(F)c(Nc3ccc4c(n3)NC(=O)C(C)(C)O4)n2)cc(OC)c1OC.O=S(=O)(O)c1ccccc1 [R406 phenylsulfonate salt]" measured_parameter=Cmax val=41.3

###

- experiment-summary: Vitreous pharmacokinetics after oral or subconjunctival administration
- Format: in vivo, mouse
- condition-summary: local (subconjunctival), castor oil emulsion 6.5 mM, 65 nmol per eye; mice
measured-parameter: Cmax (nM)

molecule="COc1cc(Nc2ncc(F)c(Nc3ccc4c(n3)NC(=O)C(C)(C)O4)n2)cc(OC)c1OC [R406 free base]" result_unit=nM val=169

###

- experiment-summary: Co-solvent solution formulation solubility matrix
- Format: physicochemical
- condition-summary: aqueous with cosolvent or surfactant or cyclodextrin; Trial 11: 15% pPPG, 4% Tween-80, 81% PBS; read-out: R788 Solubility
measured-parameter: solubility (µM)

compound="COc1cc(Nc2ncc(F)c(Nc3ccc4c(n3)N(COP(=O)(O)O)C(=O)C(C)(C)O4)n2)cc(OC)c1OC [R788]" val=1840

###

- experiment-summary: Plasma pharmacokinetics after oral or subconjunctival administration
- Type: in vivo, mouse
- condition-summary: local (subconjunctival), DMSO 31.4 mM, 314 nmol per eye; mice
measured-parameter: Cmax

compound="COc1cc(Nc2ncc(F)c(Nc3ccc4c(n3)NC(=O)C(C)(C)O4)n2)cc(OC)c1OC.O=S(=O)(O)c1ccccc1 [R406 phenylsulfonate salt]" measured_parameter=Cmax val="370 nM"

###

- experiment-summary: Co-solvent solution formulation solubility matrix
- Format: physicochemical
- condition-summary: aqueous with cosolvent or surfactant or cyclodextrin; Trial 13: 5% Cremaphor-eL, 15% pPPG, 4% Tween-80, 76% PBS; read-out: R788 Solubility
measured-parameter: solubility

mol=COc1cc(Nc2ncc(F)c(Nc3ccc4c(n3)N(COP(=O)(O)O)C(=O)C(C)(C)O4)n2)cc(OC)c1OC measured_parameter=solubility val="2640 µM"

###

- experiment-summary: Co-solvent solution formulation solubility matrix
- Format: physicochemical
- condition-summary: aqueous with cosolvent or surfactant or cyclodextrin; Trial 12: 5% Cremaphor-eL, 15% pPPG, 80% PBS; read-out: R788 Solubility
measured-parameter: solubility (µM)

mol=COc1cc(Nc2ncc(F)c(Nc3ccc4c(n3)N(COP(=O)(O)O)C(=O)C(C)(C)O4)n2)cc(OC)c1OC measured_parameter=solubility result_unit=µM val=2150

###

- experiment-summary: Maximum solubility in PBS or saline
- Type: physicochemical
- condition-summary: saline; read-out: maximum solubility in saline
measured-parameter: solubility

mol=COc1cc(Nc2ncc(F)c(Nc3ccc4c(n3)N(COP(=O)(O)O)C(=O)C(C)(C)O4)n2)cc(OC)c1OC measured_parameter=solubility val="1200 to 1400 µM"

###

- Test system: RB355 retinoblastoma cells
- experiment-summary: RB355 cell viability (Cell Titer Glo) after varied exposure durations
- Format: cell-based
- condition-summary: 1 μM R406, 48 – 72 h exposure; read-out: drop in viability compared to DMSO treated controls
measured-parameter: cytotoxicity

mol=COc1cc(Nc2ncc(F)c(Nc3ccc4c(n3)NC(=O)C(C)(C)O4)n2)cc(OC)c1OC test_target="RB355 retinoblastoma cells" measured_parameter=cytotoxicity val=~20%

Just for reference, paper PMC4213378 is where these values come from.
